All figures here come from patent US7022699B2.

- assayed target: human vasopressin V1a receptor subtype (Homo sapiens, UniProt P37288)
- Construct: host or cells: CHO cells, stably transfected (pZeoSV vector for the Thibonnier cells); membranes
- Sequence (P37288 whole entry): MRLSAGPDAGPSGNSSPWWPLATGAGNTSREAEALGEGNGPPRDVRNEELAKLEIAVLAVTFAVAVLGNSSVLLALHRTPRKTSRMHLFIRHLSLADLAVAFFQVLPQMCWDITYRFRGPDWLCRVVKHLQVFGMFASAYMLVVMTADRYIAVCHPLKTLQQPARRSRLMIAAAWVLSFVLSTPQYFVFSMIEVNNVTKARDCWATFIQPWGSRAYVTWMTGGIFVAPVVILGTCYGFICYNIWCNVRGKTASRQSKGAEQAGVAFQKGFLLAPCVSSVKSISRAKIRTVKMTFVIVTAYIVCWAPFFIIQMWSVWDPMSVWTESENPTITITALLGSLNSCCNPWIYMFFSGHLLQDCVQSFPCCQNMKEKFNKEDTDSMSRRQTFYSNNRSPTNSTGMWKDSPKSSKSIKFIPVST
- test description: Vasopressin binding in CHO cell membranes expressing human vasopressin V1a subtype receptors ([3H]Manning ligand)
- measurement context: 100 nM, values without parentheses
measured parameter: inhibition at 0.1 µM (%)
Answers are plain numbers, in %.

CC1=C(c2ccc(C(=O)N3Cc4cccn4Cc4ccccc43)cc2C)CCC[C@H]1O [Example 6]	45
Cc1cc(C(=O)N2Cc3cccn3Cc3ccccc32)ccc1C1=CC(O)CCC1 (stereo not shown)	91
CC1=C(c2ccc(C(=O)N3Cc4cccn4Cc4ccccc43)cc2)CCCC1O (stereo not shown)	89

Respond only with inhibition at 0.1 µM recorded for CC1=C(c2ccc(C(=O)N3Cc4cccn4Cc4ccccc43)cc2C)CCC[C@@H]1O (single isomer, unassigned)
93
